- target.under.test: SSTR2 (Homo sapiens, UniProt P30874)
- Sequence (P30874 whole entry): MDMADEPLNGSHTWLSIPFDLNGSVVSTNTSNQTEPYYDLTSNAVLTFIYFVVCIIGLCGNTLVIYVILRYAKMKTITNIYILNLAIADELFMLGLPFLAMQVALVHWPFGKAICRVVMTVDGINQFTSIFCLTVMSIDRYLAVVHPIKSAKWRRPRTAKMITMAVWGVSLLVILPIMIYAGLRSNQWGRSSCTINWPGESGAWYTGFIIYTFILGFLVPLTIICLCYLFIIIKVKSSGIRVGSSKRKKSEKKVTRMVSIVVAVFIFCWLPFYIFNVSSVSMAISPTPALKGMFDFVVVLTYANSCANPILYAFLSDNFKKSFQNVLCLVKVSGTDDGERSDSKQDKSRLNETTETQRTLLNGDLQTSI
- experiment.notes: SSTR binding affinity by radioligand binding competition assay ([125I]-Tyr11-Somatostatin, membrane extracts)
- condition: radioligand competition, [125I]-Tyr11-Somatostatin 0.1 nM, membrane extracts; Ki from IC50 by Cheng Prusoff; read-out: SSTR2 Ki
pKi: −log10 of the molar value. Square brackets hold non-standard residues; d marks the D form. Peptide text beside a SMILES is read from it. * marks the point of attachment. ξ: configuration not given here. DOTA(Lu)NH(CH2)6NHCOCH2 = O=C(CN1CCN2CCN3CCN(CC1)CC(=O)[O][Lu]([O]C(=O)C2)[O]C(=O)C3)NCCCCCCNC(=O)C*; X6 = O=C(CN1CCN2CCN3CCN(CC1)CC(=O)[O][Lu]([O]C(=O)C2)[O]C(=O)C3)NCCOCCOCCOCCNC(=O)C*; dTrp(βS-Me) = C[C@@H](c1c[nH]c2ccccc12)[C@@H](N)C(=O)O; dNMeW = CN[C@H](Cc1c[nH]c2ccccc12)C(=O)O; NMeF = CN[C@@H](Cc1ccccc1)C(=O)O; 4Pal = N[C@@H](Cc1ccncc1)C(=O)O; ξThr(3R) = C[C@@H](O)C(N)C(=O)O; NMehCys = CN[C@@H](CCS)C(=O)O; NMeK = CN[C@@H](CCCCN)C(=O)O
Entries and their pKi values follow.
parameter: pKi

C[C@@H](O)[C@@H]1NC(=O)[C@H](CCCCN)NC(=O)[C@@H](Cc2c[nH]c3ccccc23)NC(=O)[C@H](Cc2ccc(O)cc2)NC(=O)[C@H](CCSCCC(=O)NCCCCCCNC(=O)CN2CCN3CCN4CCN(CC2)CC(=O)[O][Lu]([O]C(=O)C3)[O]C(=O)C4)N(C)C(=O)[C@H](Cc2ccccc2)NC1=O [RB-0003374]; > 9.00
CC(C)[C@@H]1NC(=O)[C@H](CCCCN)NC(=O)[C@@H]([C@@H](C)c2c[nH]c3ccccc23)NC(=O)[C@H](Cc2ccc(O)cc2)NC(=O)[C@H](CCSCC(=O)NCCCCCCNC(=O)CN2CCN3CCN4CCN(CC2)CC(=O)[O][Lu]([O]C(=O)C3)[O]C(=O)C4)N(C)C(=O)[C@H](Cc2ccccc2)NC1=O [RB-0004609] (cyclo(F[NMehCys](DOTA(Lu)NH(CH2)6NHCOCH2)Y[dTrp(βS-Me)]KV)); > 9.00
C[C@@H](O)[C@@H]1NC(=O)[C@H](CCCCN)NC(=O)[C@@H]([C@@H](C)c2c[nH]c3ccccc23)NC(=O)[C@H](Cc2ccncc2)NC(=O)[C@H](CCSCC(=O)NCCCCCCNC(=O)CN2CCN3CCN4CCN(CC2)CC(=O)[O][Lu]([O]C(=O)C3)[O]C(=O)C4)N(C)C(=O)[C@H](Cc2ccccc2)NC1=O [RB-0003381] (cyclo([4Pal][dTrp(βS-Me)]KTF[NMehCys](DOTA(Lu)NH(CH2)6NHCOCH2))); > 9.00
C[C@@H](O)[C@@H]1NC(=O)[C@H](CCCCN)NC(=O)[C@@H](Cc2c[nH]c3ccccc23)NC(=O)[C@H](Cc2ccc(O)cc2)NC(=O)[C@H](CCSCC(=O)NCCOCCOCCOCCNC(=O)CN2CCN3CCN4CCN(CC2)CC(=O)[O][Lu]([O]C(=O)C3)[O]C(=O)C4)N(C)C(=O)CNC1=O [RB-0005286] (cyclo(G[NMehCys](X6)Y[dW]KT)); 7.48 to 8.00
C[C@@H](O)C1NC(=O)[C@H](CCCCN)N(C)C(=O)[C@@H](Cc2c[nH]c3ccccc23)N(C)C(=O)[C@H](Cc2ccc(O)cc2)NC(=O)[C@H](CCSCC(=O)NCCCCCCNC(=O)CN2CCN3CCN4CCN(CC2)CC(=O)[O][Lu]([O]C(=O)C3)[O]C(=O)C4)N(C)C(=O)[C@H](Cc2ccccc2)N(C)C1=O (stereo partly drawn) [RB-0004538] (cyclo([NMeF][NMehCys](DOTA(Lu)NH(CH2)6NHCOCH2)Y[dNMeW][NMeK][ξThr(3R)])); 8.00 to 8.48

---

- target.under.test: SSTR2 (Homo sapiens, UniProt P30874)
- experiment.notes: SSTR binding affinity by radioligand binding competition assay ([125I]-Tyr11-Somatostatin, membrane extracts)
- condition: radioligand competition, [125I]-Tyr11-Somatostatin 0.1 nM, membrane extracts; Ki from IC50 by Cheng Prusoff; read-out: SSTR2 Ki
pKi: −log10 of the molar value. Numbered stars: 1 amine (or outer) side, 2 acyl side, 3 side chain; on linkers, the order of the positions; unused ones are H or OH. Square brackets hold non-standard residues; d marks the D form. Peptide text beside a SMILES is read from it. * marks the point of attachment. DOTA(Lu)NH(CH2)6NHCOCH2 = O=C(CN1CCN2CCN3CCN(CC1)CC(=O)[O][Lu]([O]C(=O)C2)[O]C(=O)C3)NCCCCCCNC(=O)C*; X6 = O=C(CN1CCN2CCN3CCN(CC1)CC(=O)[O][Lu]([O]C(=O)C2)[O]C(=O)C3)NCCOCCOCCOCCNC(=O)C*; DOTA(Lu) = O=C1CN2CCN3CCN(CC(=O)*)CCN(CC2)CC(=O)[O][Lu]([O]1)[O]C(=O)C3; Ala(piperidin-4-yl) = O=C([C@H](CC1CCN([*:3])CC1)N[*:1])[*:2]; dTrp(βS-Me) = C[C@@H](c1c[nH]c2ccccc12)[C@@H](N)C(=O)O; βMeTrp(2S,3R) = C[C@H](c1c[nH]c2ccccc12)[C@H](N)C(=O)O; Ala(piperazin-1-yl) = N[C@@H](CN1CCNCC1)C(=O)O; Phe(3R-Me) = C[C@H](c1ccccc1)[C@H](N)C(=O)O; X22 = O=C([C@H](Cc1ccc(O)nc1)N[*:1])[*:2]; Phe(3-OMe) = COc1cccc(C[C@H](N)C(=O)O)c1; 4Pal = N[C@@H](Cc1ccncc1)C(=O)O; Cha = N[C@@H](CC1CCCCC1)C(=O)O; NMehCys = CN[C@@H](CCS)C(=O)O; NMeK = CN[C@@H](CCCCN)C(=O)O
Entries and their pKi values follow.
parameter: pKi

COc1cccc(C[C@@H]2NC(=O)[C@H](CCCCNC(=O)CN3CCN4CCN5CCN(CC3)CC(=O)[O][Lu]([O]C(=O)C4)[O]C(=O)C5)N(C)C(=O)[C@H](Cc3ccccc3)NC(=O)[C@H]([C@@H](C)O)NC(=O)[C@H](CC3CCNCC3)NC(=O)[C@@H]([C@@H](C)c3c[nH]c4ccccc34)NC2=O)c1 [RB-0006209] (cyclo(F[NMeK](DOTA(Lu))[Phe(3-OMe)][dTrp(βS-Me)][Ala(piperidin-4-yl)]T)); 8.48 to 9.00
C[C@H](c1c[nH]c2ccccc12)[C@@H]1NC(=O)[C@H](Cc2ccc(O)cc2)NC(=O)[C@H](CCSCC(=O)NCCCCCCNC(=O)CN2CCN3CCN4CCN(CC2)CC(=O)[O][Lu]([O]C(=O)C3)[O]C(=O)C4)N(C)C(=O)[C@H](Cc2ccccc2)NC(=O)[C@H]([C@@H](C)O)NC(=O)[C@H](CCCCN)NC1=O [RB-0006019] (cyclo(F[NMehCys](DOTA(Lu)NH(CH2)6NHCOCH2)Y[βMeTrp(2S,3R)]KT)); > 9.00
C[C@@H](O)[C@@H]1NC(=O)[C@H](CCCCN)NC(=O)[C@@H](Cc2c[nH]c3ccccc23)NC(=O)[C@H](Cc2ccncc2)NC(=O)[C@H](CCSCC(=O)NCCCCCCNC(=O)CN2CCN3CCN4CCN(CC2)CC(=O)[O][Lu]([O]C(=O)C3)[O]C(=O)C4)N(C)C(=O)[C@H](Cc2ccc(O)nc2)NC1=O [RB-0003451] (cyclo([4Pal][dW]KT[X22][NMehCys](DOTA(Lu)NH(CH2)6NHCOCH2))); 8.00 to 8.48
CC(C)[C@@H]1NC(=O)[C@H](CCCCN)NC(=O)[C@@H](Cc2c[nH]c3ccccc23)NC(=O)[C@H](Cc2ccc(O)cc2)NC(=O)[C@H](CCSCC(=O)NCCOCCOCCOCCNC(=O)CN2CCN3CCN4CCN(CC2)CC(=O)[O][Lu]([O]C(=O)C3)[O]C(=O)C4)N(C)C(=O)[C@H](Cc2ccccc2)NC1=O [RB-0004823] (cyclo(F[NMehCys](X6)Y[dW]KV)); > 9.00
CC(C)[C@@H]1NC(=O)[C@H](CCCCN)NC(=O)[C@@H](Cc2c[nH]c3ccccc23)NC(=O)[C@H](Cc2ccc(O)cc2)NC(=O)[C@H](CCSCC(=O)NCCCCCCNC(=O)CN2CCN3CCN4CCN(CC2)CC(=O)[O][Lu]([O]C(=O)C3)[O]C(=O)C4)N(C)C(=O)[C@H](CC2CCCCC2)NC1=O [RB-0004617] (cyclo([Cha][NMehCys](DOTA(Lu)NH(CH2)6NHCOCH2)Y[dW]KV)); 8.48 to 9.00
C[C@@H](O)[C@@H]1NC(=O)[C@H](CN2CCNCC2)NC(=O)[C@@H]([C@@H](C)c2c[nH]c3ccccc23)NC(=O)[C@H](Cc2ccc(O)cc2)NC(=O)[C@H](CCSCC(=O)NCCCCCCNC(=O)CN2CCN3CCN4CCN(CC2)CC(=O)[O][Lu]([O]C(=O)C3)[O]C(=O)C4)N(C)C(=O)[C@H](Cc2ccccc2)NC1=O [RB-0006072] (cyclo(F[NMehCys](DOTA(Lu)NH(CH2)6NHCOCH2)Y[dTrp(βS-Me)][Ala(piperazin-1-yl)]T)); > 9.00
C[C@H](c1ccccc1)[C@@H]1NC(=O)[C@H](CCSCC(=O)NCCCCCCNC(=O)CN2CCN3CCN4CCN(CC2)CC(=O)[O][Lu]([O]C(=O)C3)[O]C(=O)C4)N(C)C(=O)[C@H](Cc2ccccc2)NC(=O)[C@H]([C@@H](C)O)NC(=O)[C@H](CCCCN)NC(=O)[C@@H]([C@@H](C)c2c[nH]c3ccccc23)NC1=O [RB-0003383] (cyclo(F[NMehCys](DOTA(Lu)NH(CH2)6NHCOCH2)[Phe(3R-Me)][dTrp(βS-Me)]KT)); > 9.00
C[C@@H](O)[C@@H]1NC(=O)[C@H](CCCCN)NC(=O)[C@@H](Cc2c[nH]c3ccccc23)NC(=O)[C@H](Cc2ccc(O)cc2)NC(=O)[C@H](CCCSCC(=O)NCCOCCNC(=O)CN2CCN3CCN4CCN(CC2)CC(=O)[O][Lu]([O]C(=O)C3)[O]C(=O)C4)N(C)C(=O)[C@H](Cc2ccccc2)NC1=O [RB-0003486]; > 9.00
C[C@@H](O)[C@@H]1NC(=O)[C@H](CCCCN)NC(=O)[C@@H](Cc2c[nH]c3ccccc23)NC(=O)[C@H](Cc2ccc(O)cc2)NC(=O)[C@H](CNC(=O)CCCCCNC(=O)CN2CCN3CCN4CCN(CC2)CC(=O)[O][Lu]([O]C(=O)C3)[O]C(=O)C4)N(C)C(=O)[C@H](Cc2ccccc2)NC1=O [RB-0005728]; 8.00 to 8.48
C[C@@H](O)[C@@H]1NC(=O)[C@H](CC2CCNCC2)NC(=O)[C@H](Cc2c[nH]c3ccccc23)NC(=O)[C@H](Cc2ccc(O)cc2)NC(=O)[C@H](CCSCC(=O)NCCOCCOCCOCCNC(=O)CN2CCN3CCN4CCN(CC2)CC(=O)[O][Lu]([O]C(=O)C3)[O]C(=O)C4)N(C)C(=O)[C@H](Cc2ccccc2)NC1=O [RB-0005992] (cyclo(F[NMehCys](X6)YW[Ala(piperidin-4-yl)]T)); 8.00 to 8.48
